tested on: SR leukemia; test: NCI tumour cell line growth inhibition, 48 h
Field: GI50. Provide a value for each of the molecules that follow.

Q) API: value(readout=GI50, system=SR leukemia) for record "CCN(CC)CCCNCc1cc(-c2ccccc2)nc2cc(Cl)ccc12"
A) 0.716 µM

Q) Param readout= GI50; system= SR leukemia; entry= "CN1CCN(Cc2ccc(NC(=O)c3[nH]ncc3Nc3ncnc4[nH]ccc34)cc2)CC1" ; returns value.
A) 0.229 µM

Q) Query the reported GI50 for SR leukemia; item: "CC(C)[P+](c1ccccc1)(c1ccccc1)c1ccccc1"
A) 3.05 µM

Q) Request body: readout GI50, system SR leukemia, query "CCCCCCCC(=O)[O-].CCCCCCCC(=O)[O-].N.N.N.N.[Co+3].[O-][Cl+3]([O-])([O-])[O-]" . Return the value.
A) 69.9 µM

Q) Record lookup: for SR leukemia, what GI50 belongs to "CCN1CCN(c2cc(C(=O)Nc3cccc(Nc4ccc5c(OC)cccc5n4)c3)cc(C(F)(F)F)c2)CC1" ?
A) 0.883 µM

Q) // lookup GI50 | system=SR leukemia | key= "COc1cc(F)c(F)cc1C(=O)c1cnc(NC2CCN(S(C)(=O)=O)CC2)nc1N"
A) 1.23 µM

Q) Lab note: need GI50 for "Cc1cc(=O)[nH]c(N/N=C/c2ccccc2O)n1" on SR leukemia, anyone have it?
A) 6.22 µM

Q) Find GI50 (SR leukemia) for the entry "COc1cc(/C=C/C(=O)CC(=O)/C=C/c2cc(OC)c(O)c(OC)c2)cc(OC)c1O"
A) 7.56 µM

Q) # query: GI50 | item Nc1c(C(=O)c2cccc(C(O)CO)c2)cnn1-c1ccc(F)cc1 (stereo not drawn) | system: SR leukemia
A) > 25 µM

Q) # get_value(readout= GI50, system= SR leukemia) for "CC(C)=Cc1cc(C)c2ccc(C)c3c2c1C(C)=C(O)C3=O"
A) 1.46 µM

Q) Param readout = GI50; param system = SR leukemia; param query = COc1cc(S(=O)(=O)Nc2nc(-c3ccc(N4C(=O)C(C)SC4c4ccccc4O)cc3)cs2)ccc1Cl (stereo not drawn) ; response: value
A) 43.3 µM

Q) # value lookup — system SR leukemia, readout GI50, item "COc1ccc(Nc2ncnc3ccc(-c4cncc(NS(C)(=O)=O)c4)cc23)cc1Cl"
A) 1.42 µM

Q) Write down the reported GI50 of "O=C1NC(=O)C(=Cc2cn(Cc3ccccc3)c3ccccc23)C(=O)N1" , test system: SR leukemia.
A) 10.6 µM
